Biological target: UniProt:P22303
Sequence (P22303 whole entry): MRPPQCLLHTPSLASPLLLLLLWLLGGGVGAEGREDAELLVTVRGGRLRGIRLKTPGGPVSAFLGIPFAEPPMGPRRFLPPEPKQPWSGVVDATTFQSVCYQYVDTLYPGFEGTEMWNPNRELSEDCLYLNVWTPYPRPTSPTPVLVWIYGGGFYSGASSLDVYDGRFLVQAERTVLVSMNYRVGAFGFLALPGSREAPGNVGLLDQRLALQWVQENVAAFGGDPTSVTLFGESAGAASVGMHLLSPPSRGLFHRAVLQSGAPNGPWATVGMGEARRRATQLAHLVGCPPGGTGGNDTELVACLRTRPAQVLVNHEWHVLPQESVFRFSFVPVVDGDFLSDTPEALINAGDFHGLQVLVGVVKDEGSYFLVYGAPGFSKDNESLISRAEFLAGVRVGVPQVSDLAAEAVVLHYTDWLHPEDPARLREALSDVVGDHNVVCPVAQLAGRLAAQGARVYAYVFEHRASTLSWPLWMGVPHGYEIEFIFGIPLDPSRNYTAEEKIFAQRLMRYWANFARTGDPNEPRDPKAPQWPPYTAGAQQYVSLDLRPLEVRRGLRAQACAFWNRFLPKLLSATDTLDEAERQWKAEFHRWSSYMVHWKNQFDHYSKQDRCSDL
measuredParameter: IC50 (µM)
Numeric only. Scale: µM

- COc1ccccc1CN1CCCCCCCCN(Cc2ccccc2OC)C(=O)CCCCCNCc2ccc(cc2)-c2ccc(cc2)CNCCCCCC1=O: 3.39
- COc1ccccc1CN1CCCCCC(=O)N(C)CCCCCCCCN(C)C(=O)CCCCCN(Cc2ccccc2OC)Cc2ccc(cc2)-c2ccc(cc2)C1: 53.7
- COc1ccccc1CN1CCCCCCCCN(Cc2ccccc2OC)C(=O)CCCCCNCc2ccc(cc2)CNCCCCCC1=O: 1.41

INPUT: # get_value(readout= IC50, system= UniProt:P22303) for COc1ccccc1CN(CCCCCCCCN(Cc1ccccc1OC)C(=O)CCCCCN)C(=O)CCCCCN
OUTPUT: 33.1

====

Molecular target: Acetylcholine receptor (Torpedo californica) (UniProt P02710+P02712+P02718+P02714)
Assay: Antagonist activity against Nicotinic acetylcholine receptor (nAChR) of isolated Torpedo
Format: functional
The following molecules are listed with their measured pKapp values.
Reply with the value as a number alone.

* COc1ccccc1CN1CCCCCCCCN(Cc2ccccc2OC)C(=O)CCCCCNCc2ccc(cc2)CNCCCCCC1=O | 6.47
* COc1ccccc1CN1CCCCCCN(C)CCCCCCCCN(C)CCCCCCN(Cc2ccccc2OC)Cc2ccc(cc2)C1 | 6.43
* COc1ccccc1CNCCCCCCNCCCCCCCCCCCCNCCCCCCNCc1ccccc1OC | 5.66

INPUT: # get_value(readout= pKapp, system= Acetylcholine receptor (Torpedo californica) (UniProt P02710+P02712+P02718+P02714)) for COc1ccccc1CN1CCCCCCN(C)CCCCCCCCN(C)CCCCCCN(Cc2ccccc2OC)Cc2ccc(cc2)-c2ccc(cc2)C1
OUTPUT: 6.35

INPUT: Form field: pKapp recorded for COc1ccccc1CNCCCCCCNCc1ccc(-c2ccc(-c3ccc(CNCCCCCCNCc4ccccc4OC)cc3)cc2)cc1 with Acetylcholine receptor (Torpedo californica) (UniProt P02710+P02712+P02718+P02714) (enter value)
OUTPUT: 6.35

INPUT: Report pKapp for COc1ccccc1CN1CCCCCCCCN(Cc2ccccc2OC)CCCCCCNCc2ccc(cc2)Cc2ccc(cc2)CNCCCCCC1 tested on Acetylcholine receptor (Torpedo californica) (UniProt P02710+P02712+P02718+P02714).
OUTPUT: 6.26

INPUT: Provide the documented pKapp with Acetylcholine receptor (Torpedo californica) (UniProt P02710+P02712+P02718+P02714) as the system for COc1ccccc1CN(CCCCCCCCN(Cc1ccccc1OC)C(=O)CCCCCN)C(=O)CCCCCN
OUTPUT: 6.46

INPUT: Query pKapp on Acetylcholine receptor (Torpedo californica) (UniProt P02710+P02712+P02718+P02714) for COc1ccccc1CN1CCCCCCN(C)CCCCCCCCN(C)CCCCCCN(Cc2ccccc2OC)Cc2ccc(cc2)Cc2ccc(cc2)C1
OUTPUT: 6.21

INPUT: Request body: readout pKapp, system Acetylcholine receptor (Torpedo californica) (UniProt P02710+P02712+P02718+P02714), query COc1ccccc1CN1CCCCCC(=O)N(C)CCCCCCCCN(C)C(=O)CCCCCN(Cc2ccccc2OC)Cc2ccc(cc2)-c2ccc(cc2)C1 . Return the value.
OUTPUT: 5.1

INPUT: Recall the recorded pKapp for COc1ccccc1CN(C)CCCCCC(=O)N(C)CCCCCCCCN(C)C(=O)CCCCCN(C)Cc1ccccc1OC with Acetylcholine receptor (Torpedo californica) (UniProt P02710+P02712+P02718+P02714) and state it.
OUTPUT: 4.99

INPUT: Enter reported pKapp observed with Acetylcholine receptor (Torpedo californica) (UniProt P02710+P02712+P02718+P02714) for COc1ccccc1CN1CCCCCCCCN(Cc2ccccc2OC)C(=O)CCCCCNCc2ccc(cc2)-c2ccc(cc2)CNCCCCCC1=O
OUTPUT: 6.64

INPUT: Which measured pKapp belongs to COc1ccccc1CNCCCCCCNCCCCCCCCNCCCCCCNCc1ccccc1OC [METHOCTRAMINE] , tested on Acetylcholine receptor (Torpedo californica) (UniProt P02710+P02712+P02718+P02714)?
OUTPUT: 6.21
